Experiment: Microsomal metabolic stability
Format: in vitro ADME, mouse
Conditions: CD-1, mouse, pH 7.4
Numbered stars: 1 amine (or outer) side, 2 acyl side, 3 side chain; on linkers, the order of the positions; unused ones are H or OH. Bridge positions count the residues as written; N and C are the ends. Square brackets hold non-standard residues; d marks the D form. Peptide text beside a SMILES is read from it. * marks the point of attachment. Piperazine(2S-CO,4-Me) = CN1CCN[C@H](C(=O)O)C1; X6 = O=C([C@@H]1CS(=O)(=O)CCN1[*:1])[*:2]; Phe(3-Cl) = N[C@@H](Cc1cccc(Cl)c1)C(=O)O; Phe(3-Me) = Cc1cccc(C[C@H](N)C(=O)O)c1; NH(4-Cl-2-F-phenyl) = Fc1cc(Cl)ccc1N*; Pro(4R-Me) = C[C@H]1CN[C@H](C(=O)O)C1; X1 = O=C([C@@H]1CSCCN1[*:1])[*:2]; aThr = C[C@H](O)[C@H](N)C(=O)O; CO = O=C([*:1])[*:2]
Measurement label: Mouse

Past entries and their recorded results:
Molecule | Mouse
Cc1cccc(C[C@H](NC(=O)Nc2ccc(Cl)cc2F)C(=O)N[C@@H]2C(=O)N3CCC[C@H]3C(=O)N3CCSC[C@H]3C(=O)N[C@@H](C)C(=O)N3C[C@H](C)C[C@H]3C(=O)O[C@H]2C)c1 [Compound 38] ({NH(4-Cl-2-F-phenyl)-CO}-[Phe(3-Me)][aThr]P[X1]A[Pro(4R-Me)]; ester 2-C) | 1.25 ± .253 h
C[C@@H]1C[C@H]2C(=O)O[C@@H](C)[C@H](NC(=O)[C@H](Cc3cccc(Cl)c3)NC(=O)Nc3ccc(Cl)cc3F)C(=O)N3CCC[C@H]3C(=O)N3CCN(C)C[C@H]3C(=O)N[C@@H](C)C(=O)N2C1 [Compound 33] ({NH(4-Cl-2-F-phenyl)-CO}-[Phe(3-Cl)][aThr]P[Piperazine(2S-CO,4-Me)]A[Pro(4R-Me)]; ester 2-C) | 0.80 ± .805 h

Next molecule, Mouse to be filled in.
Any idea what its Mouse is? The molecule is Cc1cccc(C[C@H](NC(=O)Nc2ccc(Cl)cc2F)C(=O)N[C@@H]2C(=O)N3CCC[C@H]3C(=O)N3CCS(=O)(=O)C[C@H]3C(=O)N[C@@H](C)C(=O)N3C[C@H](C)C[C@H]3C(=O)O[C@H]2C)c1 [Compound 40] ({NH(4-Cl-2-F-phenyl)-CO}-[Phe(3-Me)][aThr]P[X6]A[Pro(4R-Me)]; ester 2-C)
6.54 ± .543 h

====

Assay: Plasma stability assay
Type: in vitro ADME, mouse
Settings: mouse, 10 μM
Numbered stars: 1 amine (or outer) side, 2 acyl side, 3 side chain; on linkers, the order of the positions; unused ones are H or OH. Bridge positions count the residues as written; N and C are the ends. Square brackets hold non-standard residues; d marks the D form. Peptide text beside a SMILES is read from it. * marks the point of attachment. Piperazine(2S-CO,4-Me) = CN1CCN[C@H](C(=O)O)C1; Phe(3-Cl) = N[C@@H](Cc1cccc(Cl)c1)C(=O)O; Phe(3-Me) = Cc1cccc(C[C@H](N)C(=O)O)c1; NH(4-Cl-2-F-phenyl) = Fc1cc(Cl)ccc1N*; Pro(4R-Me) = C[C@H]1CN[C@H](C(=O)O)C1; X1 = O=C([C@@H]1CSCCN1[*:1])[*:2]; aThr = C[C@H](O)[C@H](N)C(=O)O; CO = O=C([*:1])[*:2]
Measurement label: Mouse

Example compounds with recorded Mouse:
Compound | Result value
Cc1cccc(C[C@H](NC(=O)Nc2ccc(Cl)cc2F)C(=O)N[C@@H]2C(=O)N3CCC[C@H]3C(=O)N3CCSC[C@H]3C(=O)N[C@@H](C)C(=O)N3C[C@H](C)C[C@H]3C(=O)O[C@H]2C)c1 [Compound 38] ({NH(4-Cl-2-F-phenyl)-CO}-[Phe(3-Me)][aThr]P[X1]A[Pro(4R-Me)]; ester 2-C) | >50 h
C[C@@H]1C[C@H]2C(=O)O[C@@H](C)[C@H](NC(=O)[C@H](Cc3cccc(Cl)c3)NC(=O)Nc3ccc(Cl)cc3F)C(=O)N3CCC[C@H]3C(=O)N3CCN(C)C[C@H]3C(=O)N[C@@H](C)C(=O)N2C1 [Compound 33] ({NH(4-Cl-2-F-phenyl)-CO}-[Phe(3-Cl)][aThr]P[Piperazine(2S-CO,4-Me)]A[Pro(4R-Me)]; ester 2-C) | >50 h

Here is the next item to consider.
Any idea what Mouse was measured for Cc1cccc(C[C@H](NC(=O)Nc2ccc(Cl)cc2F)C(=O)N[C@H]2COC(=O)[C@@H]3C[C@@H](C)CN3C(=O)[C@H](C)NC(=O)[C@@H]3CCCCN3C(=O)[C@@H]3C[C@@H](O)CN3C2=O)c1 [Compound 10] ?
>50 h

====

Assay: Microsomal metabolic stability
Format: in vitro ADME, human
Details: human, pH 7.4
Description: Compounds were initially prepared by dissolving them into DMSO at a final concentration of 10 mM. NADPH regenerating solutions A and B and mouse liver microsomes (CD-1) were obtained from BD Gentest (Woburn, Mass.). […] Sample preparation for microsomal stability was modified from methods of Di, L., et al., Int J Pharm. […] The metabolic stability is evaluated via the half-life from least-squares fit of the multiple time points based on first-order kinetics.
Numbered stars: 1 amine (or outer) side, 2 acyl side, 3 side chain; on linkers, the order of the positions; unused ones are H or OH. Bridge positions count the residues as written; N and C are the ends. Square brackets hold non-standard residues; d marks the D form. Peptide text beside a SMILES is read from it. * marks the point of attachment. Piperazine(2S-CO,4-Me) = CN1CCN[C@H](C(=O)O)C1; X6 = O=C([C@@H]1CS(=O)(=O)CCN1[*:1])[*:2]; Phe(3-Me) = Cc1cccc(C[C@H](N)C(=O)O)c1; NH(4-Cl-2-F-phenyl) = Fc1cc(Cl)ccc1N*; Pro(4R-Me) = C[C@H]1CN[C@H](C(=O)O)C1; Hyp = O=C(O)[C@@H]1C[C@@H](O)CN1; aThr = C[C@H](O)[C@H](N)C(=O)O; Pip = O=C(O)[C@@H]1CCCCN1; CO = O=C([*:1])[*:2]; X2 = Fc1cc(N*)ccc1Cl
Measurement label: Human

Compound | Measurement label | Result value
Cc1cccc(C[C@H](NC(=O)Nc2ccc(Cl)c(F)c2)C(=O)N[C@@H]2C(=O)N3CCC[C@H]3C(=O)N3CCCC[C@H]3C(=O)N[C@@H](C)C(=O)N3C[C@H](C)C[C@H]3C(=O)O[C@H]2C)c1 [Compound 35] ({X2-CO}-[Phe(3-Me)][aThr]P[Pip]A[Pro(4R-Me)]; ester 2-C) | Human | 1.14 ± .145 h
Cc1cccc(C[C@H](NC(=O)Nc2ccc(Cl)cc2F)C(=O)N[C@@H]2C(=O)N3CCC[C@H]3C(=O)N3CCS(=O)(=O)C[C@H]3C(=O)N[C@@H](C)C(=O)N3C[C@H](C)C[C@H]3C(=O)O[C@H]2C)c1 [Compound 40] ({NH(4-Cl-2-F-phenyl)-CO}-[Phe(3-Me)][aThr]P[X6]A[Pro(4R-Me)]; ester 2-C) | Human | 0.62 ± .623 h

// below: Human requested for another compound
// Human lookup, key: Cc1cccc(C[C@H](NC(=O)Nc2ccc(Cl)cc2F)C(=O)N[C@@H]2C(=O)N3C[C@H](O)C[C@H]3C(=O)N3CCN(C)C[C@H]3C(=O)N[C@@H](C)C(=O)N3C[C@H](C)C[C@H]3C(=O)O[C@H]2C)c1 [Compound 31] ({NH(4-Cl-2-F-phenyl)-CO}-[Phe(3-Me)][aThr][Hyp][Piperazine(2S-CO,4-Me)]A[Pro(4R-Me)]; ester 2-C)
3.87 ± .875 h
